protocol notes: Metabolic stability in human plasma assessed as compound remaining at 1 x pH7.4 PBS measured at 3 hrs by LC-MS/MS analysis
Type: ADME, cell-free
test conditions: pH 7.4, read-out: Stability
reported metric: remaining at 3 h (%)

[
  {
    "smiles entry": "CN(C)S(=O)(=O)c1cccc(-n2sc3ccccc3c2=O)c1",
    "reported metric": "remaining at 3 h",
    "reading unit": "%",
    "result": 11.4
  },
  {
    "smiles entry": "CN(C)C(=O)c1cccc(-n2sc3ccccc3c2=O)c1",
    "reported metric": "remaining at 3 h",
    "reading unit": "%",
    "result": 18.9
  },
  {
    "smiles entry": "COC(=O)c1cccc(-n2sc3ccccc3c2=O)c1",
    "reported metric": "remaining at 3 h",
    "reading unit": "%",
    "result": 15.4
  },
  {
    "smiles entry": "O=C(O)c1cccc(-n2sc3ccccc3c2=O)c1",
    "reported metric": "remaining at 3 h",
    "reading unit": "%",
    "result": 50.2
  }
]

====

protocol notes: Metabolic stability in human liver microsomes measured at 1 uM after 1 hr at pH 7.4 by LC-MS/MS analysis
Format: ADME
test conditions: read-out: Stability

[
  {
    "smiles entry": "O=C(O)c1cccc(-n2sc3ccccc3c2=O)c1",
    "remaining at 1 h, 1 µM / %": 100
  },
  {
    "smiles entry": "CN(C)C(=O)c1cccc(-n2sc3ccccc3c2=O)c1",
    "remaining at 1 h, 1 µM / %": 45.7
  },
  {
    "smiles entry": "COC(=O)c1cccc(-n2sc3ccccc3c2=O)c1",
    "remaining at 1 h, 1 µM / %": 72.4
  },
  {
    "smiles entry": "CN(C)S(=O)(=O)c1cccc(-n2sc3ccccc3c2=O)c1",
    "remaining at 1 h, 1 µM / %": 72.4
  }
]

====

target or system: Mannose-6-phosphate isomerase (Homo sapiens)
Sequence (P34949 whole entry): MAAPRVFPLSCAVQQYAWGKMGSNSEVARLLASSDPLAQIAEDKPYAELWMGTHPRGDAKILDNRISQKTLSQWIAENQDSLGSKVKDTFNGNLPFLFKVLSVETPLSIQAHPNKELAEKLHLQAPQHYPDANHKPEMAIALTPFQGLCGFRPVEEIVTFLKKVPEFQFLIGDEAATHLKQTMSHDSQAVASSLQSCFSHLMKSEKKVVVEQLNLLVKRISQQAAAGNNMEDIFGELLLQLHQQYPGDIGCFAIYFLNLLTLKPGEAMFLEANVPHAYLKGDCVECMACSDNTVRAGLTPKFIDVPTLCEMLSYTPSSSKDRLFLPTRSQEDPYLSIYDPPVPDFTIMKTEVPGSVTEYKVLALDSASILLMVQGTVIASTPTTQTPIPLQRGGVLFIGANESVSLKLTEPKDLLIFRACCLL
protocol notes: Inhibition of phosphomannose isomerase (unknown origin)
pIC50: −log10 of the molar value.
Tag: 1.0 if measured pIC50 is not below 5, 0.0 if it is.

[
  {
    "smiles entry": "O=c1c2ccccc2sn1-c1ccc(F)cc1",
    "qualitative label": 1.0
  },
  {
    "smiles entry": "O=c1c2ccc(F)cc2sn1-c1ccc(F)cc1",
    "qualitative label": 1.0
  },
  {
    "smiles entry": "O=c1c2ccc(F)cc2sn1-c1ccccc1",
    "qualitative label": 1.0
  },
  {
    "smiles entry": "Cc1ccc(-n2sc3ccccc3c2=O)cc1",
    "qualitative label": 1.0
  },
  {
    "smiles entry": "O=c1c2ccccc2sn1-c1ccc(F)c(Cl)c1",
    "qualitative label": 0.0
  },
  {
    "smiles entry": "CCN(CC)S(=O)(=O)c1cccc(-n2sc3ccccc3c2=O)c1",
    "qualitative label": 0.0
  },
  {
    "smiles entry": "CCOC(=O)c1ccc(-n2sc3ccccc3c2=O)cc1",
    "qualitative label": 0.0
  }
]

// provenance: ChEMBL document CHEMBL3351720
